IC50 for assorted compounds
- Test system: KB cells
- Method notes: In vitro KB cell cytotoxicity assay (crystal violet)
- Format: cell-based
- Stated conditions: Homo sapiens, 72 h, 3 days culture, read-out: KB Cell Cytotoxicity TD50

Compound | Scale unit | IC50
O=C(Cc1cccs1)NC[C@@H]1CN2C(=O)C[C@H]2O1 (racemic) [Example 31] | µg/mL | 0.098
CCCCCC(=O)NC[C@@H]1CN2C(=O)C[C@H]2O1 (racemic) [Example 4] | µg/mL | 0.312
CS(=O)(=O)NC[C@H]1CN2C(=O)C[C@H]2O1 (racemic) [Example 35] | µg/mL | 0.198
CC(C)[C@H](N)C(=O)NCC(=O)NC[C@@H]1CN2C(=O)C[C@H]2O1.Cl (mixture of isomers) [Example 45B] | µg/mL | 1.97
CC(=O)N[C@@H](C(=O)OC[C@H]1CN2C(=O)C[C@@H]2O1)C(C)C (mixture of isomers) [Example 61] | µg/mL | 0.385
N#Cc1ccc(C(=O)NC[C@@H]2CN3C(=O)C[C@H]3O2)cc1 (racemic) [Example 30] | µg/mL | 0.378
Cl.NCC(=O)NCC(=O)OC[C@H]1CN2C(=O)C[C@@H]2O1 (racemic) [Example 40B] | µg/mL | 0.636
C=CCCC(=O)NC[C@@H]1CN2C(=O)C[C@H]2O1 (racemic) [Example 19] | µg/mL | 0.266
